molecular target: human corticotropin-releasing factor 2α (CRF2 α receptor) (human), Q13324; test: cell-based or functional assay
Sequence (Q13324 20-411): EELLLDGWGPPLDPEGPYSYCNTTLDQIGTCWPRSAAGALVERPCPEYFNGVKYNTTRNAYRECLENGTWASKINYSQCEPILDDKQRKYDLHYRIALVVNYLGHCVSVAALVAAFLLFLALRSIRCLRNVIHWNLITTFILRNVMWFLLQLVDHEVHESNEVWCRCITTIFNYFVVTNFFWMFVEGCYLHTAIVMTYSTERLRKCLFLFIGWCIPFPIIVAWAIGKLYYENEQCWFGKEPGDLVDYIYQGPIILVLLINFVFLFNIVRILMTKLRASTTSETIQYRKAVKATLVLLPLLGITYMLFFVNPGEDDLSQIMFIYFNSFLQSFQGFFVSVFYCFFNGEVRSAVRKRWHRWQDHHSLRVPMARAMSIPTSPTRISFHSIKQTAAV
Starred links: 1 amine or outer side, 2 acyl side, 3 side chain; linkers in the order of their positions; H or OH if unused. Non-standard residues stand in square brackets, D forms with d. Groups on a side chain read outwards from the residue. No end group written: not given here. *: point of attachment. C20 diacid = O=C(O)CCCCCCCCCCCCCCCCCCC(=O)*; C18 diacid = O=C(O)CCCCCCCCCCCCCCCCC(=O)*; γGlu = O=C(O)[C@H](CCC(=O)[*:2])N[*:1]; Palmitoyl = CCCCCCCCCCCCCCCC(=O)*; AEEA = NCCOCCOCC(=O)O; Aib = CC(C)(N)C(=O)O
Binary call on EC50 [nM], 0% HSA with cut-off 0.8 nM: strictly below means t, and equality or higher means f.

IVLSLD[dV]PTKLK([AEEA-AEEA-γGlu-C20 diacid])KKLLKQERKR[Aib]EREKAEKAARILERV-NH2 [SEQ ID NO: 224] = f

Problem: In the record for FTLSLDVPTKIKQILLKQQKQKKERQQAETNKQLLERV-NH2 (not fully specified (residue 12); printed as FTLSLDVPTKIK*QILLKQQKQKKERQQAETNKQLLERV-NH2) [SEQ ID NO: 61] , is EC50 [nM], 0% HSA less than 0.8 nM?
Result: t

Problem: In the record for FTLSLDVPTKIKQILLKQQKQKKERQQAEKNKQLLEQI-NH2 (not fully specified (residue 12); printed as FTLSLDVPTKIK*QILLKQQKQKKERQQAEKNKQLLEQI-NH2) [SEQ ID NO: 59] , is EC50 [nM], 0% HSA less than 0.8 nM?
Result: t

Problem: In the record for FTLSLDVPIGLKQILLKQQKQKKERQKAETNVQLLERV-NH2 (not fully specified (residue 12); printed as FTLSLDVPIGLK*QILLKQQKQKKERQKAETNVQLLERV-NH2) [SEQ ID NO: 66] , is EC50 [nM], 0% HSA less than 0.8 nM?
Result: f

Problem: In the record for IVLSLD[dV]PTKLK([AEEA-AEEA-γGlu-C18 diacid])KKLLKQERKR[Aib]EREKAEKAARILERV-NH2 [SEQ ID NO: 47] , is EC50 [nM], 0% HSA less than 0.8 nM?
Result: f

Problem: In the record for IVLSLD[dV]PTKLK([γGlu-Palmitoyl])QKLLKQERQRKEREQAEKNVRILERV-NH2 [SEQ ID NO: 32] , is EC50 [nM], 0% HSA less than 0.8 nM?
Result: t

Problem: In the record for IVLSLD[dV]PTKLK([γGlu-Palmitoyl])QKLLKQERQRKEREQAEKNARILARV-NH2 [SEQ ID NO: 7] , is EC50 [nM], 0% HSA less than 0.8 nM?
Result: t

Problem: In the record for IVLSLDVPIKLK([AEEA-AEEA-γGlu-C18 diacid])QILLEQARQK[Aib]QRAQAETNKRILERV-NH2 [SEQ ID NO: 114] , is EC50 [nM], 0% HSA less than 0.8 nM?
Result: t

Problem: In the record for FTLSLDVPIKLKQILLEQQKQKKERQQAETNVQLLERV-NH2 (not fully specified (residue 12); printed as FTLSLDVPIKLK*QILLEQQKQKKERQQAETNVQLLERV-NH2) [SEQ ID NO: 63] , is EC50 [nM], 0% HSA less than 0.8 nM?
Result: t
